Target: ALK2 (Mus musculus)
Construct: The C2C12 cell line was selected for the measurement of ALK2 activity using BMP6 as the agonist; host or cells: C2C12
Sequence (P37172 21-509): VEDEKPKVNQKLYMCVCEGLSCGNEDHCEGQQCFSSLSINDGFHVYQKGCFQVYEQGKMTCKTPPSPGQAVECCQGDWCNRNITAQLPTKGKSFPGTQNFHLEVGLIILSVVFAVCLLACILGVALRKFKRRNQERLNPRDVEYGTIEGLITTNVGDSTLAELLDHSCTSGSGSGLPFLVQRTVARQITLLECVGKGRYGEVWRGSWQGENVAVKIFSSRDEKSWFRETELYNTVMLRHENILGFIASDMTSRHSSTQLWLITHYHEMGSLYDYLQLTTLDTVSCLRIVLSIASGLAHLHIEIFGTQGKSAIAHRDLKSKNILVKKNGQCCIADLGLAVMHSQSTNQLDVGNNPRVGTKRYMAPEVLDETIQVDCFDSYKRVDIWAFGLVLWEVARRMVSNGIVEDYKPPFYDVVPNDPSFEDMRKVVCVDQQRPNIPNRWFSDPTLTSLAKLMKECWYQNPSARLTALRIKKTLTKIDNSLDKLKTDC
Test: HTRF pSMAD1 cell-based ALK2 assay (C2C12 cells, BMP6 as agonist)
Conditions: cell-based assay, BMP6; read-out: Cell IC50 BMP6
measuredQuantity: pIC50
Answers are plain numbers, as −log10 of the molar value.

CNC(=O)c1ccc(-c2cnn3cc(-c4ccc(N5CCNCC5)cc4)cnc23)c2ccccc12 [Compound 3]
5.50
C[C@@H]1CNC[C@H](C)N1c1ccc(-c2cnc3c(-c4ccc(C#N)c5ccccc45)cnn3c2)cc1 [Compound 19]
7.36
Fc1ccc(-c2cnn3cc(-c4ccc(CCN5CCCCC5)cc4)cnc23)cc1-c1nnn[nH]1 [Compound 78]
4.15
C[C@@H]1CNC[C@H](C)N1c1ccc(-c2cnc3c(-c4cccc(C(N)=O)c4)cnn3c2)cc1 [Compound 67]
6.81
C[C@@H]1CNC[C@H](C)N1c1ccc(-c2cnc3c(-c4ccc(CS(N)(=O)=O)cc4)cnn3c2)cc1 [Compound 71]
4.66
CN(C)C(=O)c1ccc(-c2cnn3cc(-c4ccc(N5CCNCC5)cc4)cnc23)c2ccccc12 [Compound 4]
6.23
CCNS(=O)(=O)c1cccc(-c2cnn3cc(-c4ccc(N5[C@H](C)CNC[C@@H]5C)cc4)cnc23)c1 [Compound 77]
7.55
NS(=O)(=O)c1cccc(-c2cnn3cc(-c4ccc(C5CCNCC5)cc4)cnc23)c1 [Compound 95]
5.82
C[C@@H]1CNC[C@H](C)N1c1ccc(-c2cnc3c(-c4ccc(CN)c5ccccc45)cnn3c2)cc1 [Compound 23]
7.48
NS(=O)(=O)c1cccc(-c2cnn3cc(-c4ccc(CCN5CCCCC5)cc4)cnc23)c1 [Compound 75]
6.33

Each of the following entries comes with a recorded value; kindly state pIC50 for each.
1. CN1CCN(c2ccc(-c3cnc4c(-c5ccc(S(N)(=O)=O)c6ccccc56)cnn4c3)cc2)CC1 [Compound 62]
2. NS(=O)(=O)c1ccc(-c2cnn3cc(-c4ccc(CCN5CCCCC5)cc4)cnc23)c2ccccc12 [Compound 54]
3. C[C@@H]1CNC[C@H](C)N1c1ccc(-c2cnc3c(-c4cccc(CO)c4)cnn3c2)cc1 [Compound 74]
4. NC(=O)c1ccc(-c2cnn3cc(-c4ccc(N5CCNCC5)cc4)cnc23)c2ccccc12 [Compound 2]
5. CC(O)c1cccc(-c2cnn3cc(-c4ccc(C5CCNCC5)cc4)cnc23)c1 (stereo not drawn) [Compound 98]

5.52
6.80
7.10
7.55
6.18

###

Molecular target: ALK4 (Homo sapiens)
Sequence (P36896 24-505): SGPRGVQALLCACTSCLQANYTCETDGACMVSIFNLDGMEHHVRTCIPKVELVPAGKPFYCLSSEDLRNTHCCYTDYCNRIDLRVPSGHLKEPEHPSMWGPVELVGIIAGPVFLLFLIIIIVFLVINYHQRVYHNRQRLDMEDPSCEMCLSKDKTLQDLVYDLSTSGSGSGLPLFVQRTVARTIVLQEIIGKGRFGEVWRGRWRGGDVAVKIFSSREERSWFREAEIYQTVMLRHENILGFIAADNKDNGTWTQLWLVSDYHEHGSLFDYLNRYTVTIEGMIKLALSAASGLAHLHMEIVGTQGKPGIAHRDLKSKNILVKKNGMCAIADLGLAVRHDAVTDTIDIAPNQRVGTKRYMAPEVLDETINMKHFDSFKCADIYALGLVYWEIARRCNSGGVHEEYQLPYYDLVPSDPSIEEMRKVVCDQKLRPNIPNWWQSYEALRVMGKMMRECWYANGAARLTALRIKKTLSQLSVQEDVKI
Assay: TR-FRET enzymatic ALK kinase assay, ALK4
measuredQuantity: pIC50
Answers are plain numbers, as −log10 of the molar value.

Would you please look over these solved cases?
NC(=O)c1cccc2c(-c3cnn4cc(-c5ccc(N6C[C@@H]7C[C@H]6CN7)cc5)cnc34)cccc12
5.55
C[C@@H]1CNC[C@H](C)N1c1ccc(-c2cnc3c(-c4cccc(C(N)=O)c4)cnn3c2)cc1
5.59
CC(C)(CN1CCCCC1)Oc1ccc(-c2cnc3c(-c4ccc(C(N)=O)c5ccccc45)cnn3c2)cc1
5.69
C[C@@H]1CNC[C@H](C)N1c1ccc(-c2cnc3c(-c4cccc([S+](=O)([O-])C5CC5)c4)cnn3c2)cc1
5.19
CNC(=O)c1cccc2c(-c3cnn4cc(-c5ccc(N6CCNCC6)cc5)cnc34)cccc12
4.51

# next compound below
So what's the measured pIC50 for this one? C[C@@H]1CNC[C@H](C)N1c1ccc(-c2cnc3c(-c4ccc(CO)c5ccccc45)cnn3c2)cc1
5.87
